// reported phosphorylation enrichment for each item listed
# System: AncSZ
# testMethodNotes: phosphorylation enrichment, bacterial display (enrichment ratio); higher = better substrate or ligand; peptides without Tyr show the background
Could you respond with only the numeric value?

Here is how some sequences turned out for phosphorylation enrichment.
In [3]: df
Out[3]:
                            sequence  result
0             YRASYYRRGDR [LTK_Y677]   0.653
1      TGQERYRAITS [RAB11B_Y73_A68T]   0.516
2  FDGKDYIALKE [HLA-A_Y147_N151K_YF]   0.952
3      PSQRHYVYYYS [PTEN_Y174_R173H]    1.71
4       GRIHSYRGHLW [VHL_Y112_R107G]   0.585

For the sequence QFQEKYKQVEQ [HCN4_Y531_YF] , the measured phosphorylation enrichment on AncSZ was 1.27

For the sequence MGSFNYLGFAW [SPTLC2_Y178_R183W_YF] , the measured phosphorylation enrichment on AncSZ was 1.17

For the sequence GKSFIYAAFHA [KCNT1_Y563_T562I] , the measured phosphorylation enrichment on AncSZ was 1.18

For the sequence LYIDSYEKDVA [PGM1_Y521] , the measured phosphorylation enrichment on AncSZ was 1.81

For the sequence PEVSGYCHYAD [TG_Y234_C237Y] , the measured phosphorylation enrichment on AncSZ was 0.864

For the sequence NPSFNYEIVNQ [DYNC1H1_Y3379_R3384Q_YF] , the measured phosphorylation enrichment on AncSZ was 1.43

For the sequence VRVQLYDPDFM [CYP4A22_Y100_Y104F] , the measured phosphorylation enrichment on AncSZ was 1.06

For the sequence IIEDPYYGNDF [ACP1_Y132_S137F] , the measured phosphorylation enrichment on AncSZ was 1.79

For the sequence ENRKFYKDLKE [PURA_Y156_M157K_YF] , the measured phosphorylation enrichment on AncSZ was 0.532

* * *

// reported phosphorylation enrichment for each item listed
# system: EPHB1 (UniProt P54762)
# Sequence (P54762 whole entry, looked up): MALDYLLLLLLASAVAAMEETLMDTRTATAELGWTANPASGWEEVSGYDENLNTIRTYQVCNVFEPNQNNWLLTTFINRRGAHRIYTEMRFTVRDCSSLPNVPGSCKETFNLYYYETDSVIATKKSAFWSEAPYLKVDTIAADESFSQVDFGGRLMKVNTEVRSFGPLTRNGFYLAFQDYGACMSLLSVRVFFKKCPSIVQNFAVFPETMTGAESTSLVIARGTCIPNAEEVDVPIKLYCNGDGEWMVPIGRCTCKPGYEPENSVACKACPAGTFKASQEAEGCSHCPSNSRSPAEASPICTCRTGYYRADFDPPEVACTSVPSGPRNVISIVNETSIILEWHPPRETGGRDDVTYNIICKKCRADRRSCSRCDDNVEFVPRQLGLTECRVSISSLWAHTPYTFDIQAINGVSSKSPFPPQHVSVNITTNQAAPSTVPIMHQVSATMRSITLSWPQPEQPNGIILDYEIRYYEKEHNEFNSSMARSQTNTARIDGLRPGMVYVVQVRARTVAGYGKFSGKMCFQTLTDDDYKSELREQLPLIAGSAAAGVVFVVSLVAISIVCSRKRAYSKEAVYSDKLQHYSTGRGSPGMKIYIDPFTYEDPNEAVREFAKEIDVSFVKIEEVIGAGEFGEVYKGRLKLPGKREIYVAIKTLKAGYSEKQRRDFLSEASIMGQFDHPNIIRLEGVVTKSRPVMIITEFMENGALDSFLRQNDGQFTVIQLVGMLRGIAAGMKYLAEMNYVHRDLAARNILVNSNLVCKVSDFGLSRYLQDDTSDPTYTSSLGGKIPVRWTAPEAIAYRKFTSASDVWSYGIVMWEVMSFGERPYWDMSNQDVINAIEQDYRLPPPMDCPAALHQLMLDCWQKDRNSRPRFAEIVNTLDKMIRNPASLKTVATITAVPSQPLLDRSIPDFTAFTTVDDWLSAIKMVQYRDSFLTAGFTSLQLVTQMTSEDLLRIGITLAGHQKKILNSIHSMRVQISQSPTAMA
# testMethodNotes: phosphorylation enrichment, bacterial display (enrichment ratio); higher = better substrate or ligand; peptides without Tyr show the background

Here is how some sequences turned out for phosphorylation enrichment.
In [3]: df
Out[3]:
                         sequence                  system  result
0        LKALHYMVQTS [SACS_Y3367]  EPHB1 (UniProt P54762)   0.546
1  VILENYGADID [DNAH5_Y596_L591V]  EPHB1 (UniProt P54762)   0.555
2       SFSGEYGGGGG [ZG16_Y30_YF]  EPHB1 (UniProt P54762)   0.392

// recorded phosphorylation enrichment for SARSAYQEAMD [SFN_Y151] : 0.474

// recorded phosphorylation enrichment for HQIQSYTCEID [DES_Y331] : 0.7

* * *

# system: FGFR1 (UniProt P11362)
# Sequence (P11362 whole entry, looked up): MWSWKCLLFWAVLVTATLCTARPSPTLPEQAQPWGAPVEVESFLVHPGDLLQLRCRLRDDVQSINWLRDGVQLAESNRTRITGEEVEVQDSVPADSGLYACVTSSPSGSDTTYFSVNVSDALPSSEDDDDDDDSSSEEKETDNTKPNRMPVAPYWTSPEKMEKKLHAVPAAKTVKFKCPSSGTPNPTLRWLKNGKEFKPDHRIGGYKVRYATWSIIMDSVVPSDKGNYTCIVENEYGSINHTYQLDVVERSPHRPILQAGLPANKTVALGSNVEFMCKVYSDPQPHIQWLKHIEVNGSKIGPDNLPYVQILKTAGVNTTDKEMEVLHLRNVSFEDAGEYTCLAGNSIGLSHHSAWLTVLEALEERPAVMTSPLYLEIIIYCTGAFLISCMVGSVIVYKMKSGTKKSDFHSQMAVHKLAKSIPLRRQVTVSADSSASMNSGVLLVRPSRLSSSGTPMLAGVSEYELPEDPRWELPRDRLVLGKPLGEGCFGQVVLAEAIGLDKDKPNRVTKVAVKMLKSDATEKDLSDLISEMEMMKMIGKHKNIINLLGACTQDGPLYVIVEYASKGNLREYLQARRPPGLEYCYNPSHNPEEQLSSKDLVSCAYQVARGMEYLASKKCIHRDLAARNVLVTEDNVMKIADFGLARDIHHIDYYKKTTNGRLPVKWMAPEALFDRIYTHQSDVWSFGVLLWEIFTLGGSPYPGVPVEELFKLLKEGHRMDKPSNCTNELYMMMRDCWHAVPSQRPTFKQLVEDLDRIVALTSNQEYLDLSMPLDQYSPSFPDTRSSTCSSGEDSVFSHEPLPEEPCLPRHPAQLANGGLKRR
# testMethodNotes: phosphorylation enrichment, bacterial display (enrichment ratio); higher = better substrate or ligand; peptides without Tyr show the background
// reported phosphorylation enrichment for each item listed
Could you respond with only the numeric value?

Here is how some sequences turned out for phosphorylation enrichment.
>>> df
                           sequence  result
0     YPIDHYLGKEM [G6PD_Y202_R198P]   0.613
1     NTGNYYDLYGG [PTPN11_Y63_D61N]    15.7
2         FASTGYGIAIQ [GRIN2B_Y762]   0.557
3           PHIKTYMRPSP [TDP1_Y497]   0.629
4  AVIADYMFWLG [SPATA16_Y290_M286V]    13.1

// recorded phosphorylation enrichment for FCVVRYCWLRR [MPZ_Y181_Y177C] : 0.552

// recorded phosphorylation enrichment for QEGPEYWDGNT [HLA-B_Y83_R86G] : 1.11

// recorded phosphorylation enrichment for YRQLQYCPSVE [CTNND2_Y508] : 0.545

// recorded phosphorylation enrichment for DRQASYLDKVR [KRT16_Y131_L128Q] : 0.39

* * *

# Test system: c-Src
# testMethodNotes: phosphorylation enrichment, bacterial display (enrichment ratio); higher = better substrate or ligand; peptides without Tyr show the background
readoutType: phosphorylation enrichment

Here is how some sequences turned out for phosphorylation enrichment.
In [3]: df
Out[3]:
                           sequence                 readouttype  result
0           AKAEIYEMRPL [COX10_Y97]  phosphorylation enrichment    9.82
1    KVMANYVYKAG [MAML2_Y513_M514V]  phosphorylation enrichment   0.355
2            IVRSLYEDLED [VHL_Y185]  phosphorylation enrichment   0.393
3  RHFVFYFSFLL [PTEN_Y177_R173H_YF]  phosphorylation enrichment   0.653

Next item in the queue.
For the sequence VLALWYYYLTN [ZDHHC23_Y127_H132N] , the measured phosphorylation enrichment on c-Src was 1.35

* * *

# system: Grb2 SH2 (UniProt P62993)
# Sequence (P62993 whole entry, looked up): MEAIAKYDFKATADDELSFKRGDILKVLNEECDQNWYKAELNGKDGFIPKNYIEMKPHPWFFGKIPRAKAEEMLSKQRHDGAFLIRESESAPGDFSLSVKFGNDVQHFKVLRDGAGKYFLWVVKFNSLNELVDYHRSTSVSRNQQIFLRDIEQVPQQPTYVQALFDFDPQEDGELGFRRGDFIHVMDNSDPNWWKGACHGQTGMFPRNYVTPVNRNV
# testMethodNotes: SH2 binding enrichment of the phosphorylated peptide, bacterial display (enrichment ratio); higher = better substrate or ligand; peptides without Tyr show the background
readoutType: SH2 binding enrichment
Could you respond with only the numeric value?

// recorded SH2 binding enrichment for PADQAYSWYQH [NDST1_Y711_R709Q] : 0.802

* * *

# system: MERTK (UniProt Q12866)
# Sequence (Q12866 whole entry, looked up): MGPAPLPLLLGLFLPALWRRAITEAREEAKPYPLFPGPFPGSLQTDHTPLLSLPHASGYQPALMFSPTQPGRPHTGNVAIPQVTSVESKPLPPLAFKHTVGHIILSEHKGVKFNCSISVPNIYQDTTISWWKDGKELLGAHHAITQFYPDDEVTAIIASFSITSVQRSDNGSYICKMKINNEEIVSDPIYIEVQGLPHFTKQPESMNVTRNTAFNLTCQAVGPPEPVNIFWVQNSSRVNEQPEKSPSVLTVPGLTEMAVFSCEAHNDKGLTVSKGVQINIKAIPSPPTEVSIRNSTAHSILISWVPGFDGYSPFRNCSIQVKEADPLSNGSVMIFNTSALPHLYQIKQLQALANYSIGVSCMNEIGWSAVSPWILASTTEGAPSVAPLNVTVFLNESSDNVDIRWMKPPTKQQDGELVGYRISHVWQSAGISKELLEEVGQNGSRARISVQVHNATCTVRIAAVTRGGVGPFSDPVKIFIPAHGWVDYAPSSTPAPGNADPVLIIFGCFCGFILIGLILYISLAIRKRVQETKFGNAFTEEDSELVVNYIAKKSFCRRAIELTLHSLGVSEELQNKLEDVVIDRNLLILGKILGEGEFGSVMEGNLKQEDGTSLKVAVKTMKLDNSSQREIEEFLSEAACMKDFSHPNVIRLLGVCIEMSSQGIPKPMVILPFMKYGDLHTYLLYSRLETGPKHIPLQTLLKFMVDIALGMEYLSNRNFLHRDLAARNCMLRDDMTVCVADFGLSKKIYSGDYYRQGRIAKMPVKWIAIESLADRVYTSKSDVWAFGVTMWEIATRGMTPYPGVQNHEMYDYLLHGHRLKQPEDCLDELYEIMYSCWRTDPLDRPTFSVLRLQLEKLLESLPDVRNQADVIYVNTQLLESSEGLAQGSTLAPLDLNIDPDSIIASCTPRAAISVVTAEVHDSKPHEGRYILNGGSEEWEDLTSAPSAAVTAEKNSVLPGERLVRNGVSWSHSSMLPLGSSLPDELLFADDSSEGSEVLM
# testMethodNotes: phosphorylation enrichment, bacterial display (enrichment ratio); higher = better substrate or ligand; peptides without Tyr show the background
readoutType: phosphorylation enrichment
Could you respond with only the numeric value?

In [3]: df
Out[3]:
                          sequence                 readouttype  result
0         MPLDQYSPSFP [FGFR1_Y776]  phosphorylation enrichment   0.595
1  VTQEPYELFCE [CBL_Y368_Q367P_YF]  phosphorylation enrichment   0.592
2    TDECEYDELIV [TGM1_Y136_Y134C]  phosphorylation enrichment   0.604

Next item in the queue.
// recorded phosphorylation enrichment for EEVPLYESATT [DCC_Y809_G805E] : 0.601

* * *

# system: Fyn (UniProt P06241)
# Sequence (P06241 whole entry, looked up): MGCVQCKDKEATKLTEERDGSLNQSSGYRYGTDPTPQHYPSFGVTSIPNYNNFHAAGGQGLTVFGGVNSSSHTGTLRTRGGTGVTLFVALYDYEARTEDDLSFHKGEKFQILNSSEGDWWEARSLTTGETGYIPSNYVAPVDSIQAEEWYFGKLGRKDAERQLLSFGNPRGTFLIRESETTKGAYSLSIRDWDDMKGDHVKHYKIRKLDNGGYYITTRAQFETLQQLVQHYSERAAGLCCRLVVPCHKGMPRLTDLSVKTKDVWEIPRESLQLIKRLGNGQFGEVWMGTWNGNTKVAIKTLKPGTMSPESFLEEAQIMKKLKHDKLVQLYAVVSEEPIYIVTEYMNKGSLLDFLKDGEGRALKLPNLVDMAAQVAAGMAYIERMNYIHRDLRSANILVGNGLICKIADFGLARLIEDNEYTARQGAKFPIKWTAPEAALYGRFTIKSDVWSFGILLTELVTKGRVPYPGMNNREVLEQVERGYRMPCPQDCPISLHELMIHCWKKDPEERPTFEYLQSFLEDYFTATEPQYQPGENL
# testMethodNotes: phosphorylation enrichment, bacterial display (enrichment ratio); higher = better substrate or ligand; peptides without Tyr show the background
readoutType: phosphorylation enrichment
Could you respond with only the numeric value?

Here is how some sequences turned out for phosphorylation enrichment.
>>> df
                    sequence  result
0  FASTGYGIAIQ [GRIN2B_Y762]   0.499
1     SARSAYQEAMD [SFN_Y151]   0.495
2   AIDDKYSRREE [SART1_Y685]    0.51

// recorded phosphorylation enrichment for IQKWEYVPLGP [FAH_Y244] : 0.514

// recorded phosphorylation enrichment for DKITQYVEEVK [STX2_Y49] : 0.509

* * *

# system: c-Src SH2
# testMethodNotes: SH2 binding enrichment of the phosphorylated peptide, bacterial display (enrichment ratio); higher = better substrate or ligand; peptides without Tyr show the background
Everything with SH2 binding enrichment lower than 0.8 is not met; everything else, including exactly 0.8, is met.

Form field: SH2 binding enrichment at least 0.8? Entry: LTFDEYRNISQ [ANXA3_Y216]
not met

Form field: SH2 binding enrichment at least 0.8? Entry: LAGRYYALRSM [CKB_Y174_K177R]
met

Form field: SH2 binding enrichment at least 0.8? Entry: LGEGSYGKVKE [STK11_Y60]
not met

* * *

# system: EPHB2 (UniProt P29323)
# Sequence (P29323 whole entry, looked up): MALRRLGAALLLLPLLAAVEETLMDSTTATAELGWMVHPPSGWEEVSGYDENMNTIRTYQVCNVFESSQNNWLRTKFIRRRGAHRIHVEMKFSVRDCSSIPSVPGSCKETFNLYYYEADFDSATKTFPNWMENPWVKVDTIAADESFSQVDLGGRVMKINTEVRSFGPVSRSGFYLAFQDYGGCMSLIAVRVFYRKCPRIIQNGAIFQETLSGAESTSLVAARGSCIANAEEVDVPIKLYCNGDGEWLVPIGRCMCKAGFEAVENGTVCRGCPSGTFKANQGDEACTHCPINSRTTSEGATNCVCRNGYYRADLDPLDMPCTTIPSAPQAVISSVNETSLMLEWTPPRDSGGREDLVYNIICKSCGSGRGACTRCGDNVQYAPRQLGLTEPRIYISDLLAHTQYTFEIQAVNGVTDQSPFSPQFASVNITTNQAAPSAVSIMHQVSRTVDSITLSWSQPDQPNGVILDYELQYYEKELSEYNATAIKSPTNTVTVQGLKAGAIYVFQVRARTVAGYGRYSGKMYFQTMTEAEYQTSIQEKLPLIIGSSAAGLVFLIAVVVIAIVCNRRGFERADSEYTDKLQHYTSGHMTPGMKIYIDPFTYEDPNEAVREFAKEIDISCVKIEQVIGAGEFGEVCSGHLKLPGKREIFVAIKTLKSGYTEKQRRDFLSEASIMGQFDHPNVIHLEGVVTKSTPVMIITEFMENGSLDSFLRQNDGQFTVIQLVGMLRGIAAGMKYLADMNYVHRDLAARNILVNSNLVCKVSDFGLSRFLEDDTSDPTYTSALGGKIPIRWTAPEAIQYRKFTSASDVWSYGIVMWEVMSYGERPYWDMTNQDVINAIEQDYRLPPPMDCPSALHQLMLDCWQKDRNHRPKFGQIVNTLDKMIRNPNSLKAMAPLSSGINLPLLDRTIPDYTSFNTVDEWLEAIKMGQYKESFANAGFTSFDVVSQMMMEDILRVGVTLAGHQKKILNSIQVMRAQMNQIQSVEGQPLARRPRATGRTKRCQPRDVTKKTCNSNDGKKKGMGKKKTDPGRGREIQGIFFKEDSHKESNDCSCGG
# testMethodNotes: phosphorylation enrichment, bacterial display (enrichment ratio); higher = better substrate or ligand; peptides without Tyr show the background
// reported phosphorylation enrichment for each item listed
Could you respond with only the numeric value?

In [3]: df
Out[3]:
                          sequence                  system  result
0    EREFKYGAHKF [OAT_Y50_N54K_YF]  EPHB2 (UniProt P29323)   0.412
1          QLPRGYISIPV [BAG3_Y205]  EPHB2 (UniProt P29323)   0.722
2  FGISGYVVDSV [MAP2K3_Y214_L215V]  EPHB2 (UniProt P29323)   0.517

For the sequence SGSIHYSRVPR [GLB1_Y57] , the measured phosphorylation enrichment on EPHB2 (UniProt P29323) was 0.436

For the sequence FSLPAFMDRRD [COX4I1_Y38_Y38F] , the measured phosphorylation enrichment on EPHB2 (UniProt P29323) was 0.456

For the sequence LEIETCRRLLD [KRT12_Y429_Y429C] , the measured phosphorylation enrichment on EPHB2 (UniProt P29323) was 0.913

For the sequence STGRSYAGVAV [KLHL3_Y577] , the measured phosphorylation enrichment on EPHB2 (UniProt P29323) was 0.3

For the sequence EPGSLYGCGGG [ATM_Y2019_D2016G] , the measured phosphorylation enrichment on EPHB2 (UniProt P29323) was 0.527

For the sequence PELINYHQHFS [BTK_Y361_N365Y_YF] , the measured phosphorylation enrichment on EPHB2 (UniProt P29323) was 0.44

For the sequence FETDFYQKGGK [INSR_Y1190_R1191Q_YF] , the measured phosphorylation enrichment on EPHB2 (UniProt P29323) was 0.355

For the sequence ALTDNYMYVVI [HAGH_Y61_L64V] , the measured phosphorylation enrichment on EPHB2 (UniProt P29323) was 13.1

For the sequence HKLSFNEFDFE [BTK_Y40_Y40N_YF] , the measured phosphorylation enrichment on EPHB2 (UniProt P29323) was 0.859

For the sequence EGLRRYLENGK [HLA-A_Y195_W191G] , the measured phosphorylation enrichment on EPHB2 (UniProt P29323) was 0.323

For the sequence SLMNQYVNKEF [RAB7A_Y28_K32E] , the measured phosphorylation enrichment on EPHB2 (UniProt P29323) was 0.554

For the sequence ACCLLYCGDVV [TUBA4A_Y319_R320C] , the measured phosphorylation enrichment on EPHB2 (UniProt P29323) was 7.84

For the sequence KVGNEYVNKGQ [MYH7_Y410_T412N] , the measured phosphorylation enrichment on EPHB2 (UniProt P29323) was 0.553
